Overview of recorded IC50 for various compounds
# SYSTEM_TESTED: human CRTH2 (Homo sapiens, UniProt Q9Y5Y4)
# Sequence (Q9Y5Y4 whole entry): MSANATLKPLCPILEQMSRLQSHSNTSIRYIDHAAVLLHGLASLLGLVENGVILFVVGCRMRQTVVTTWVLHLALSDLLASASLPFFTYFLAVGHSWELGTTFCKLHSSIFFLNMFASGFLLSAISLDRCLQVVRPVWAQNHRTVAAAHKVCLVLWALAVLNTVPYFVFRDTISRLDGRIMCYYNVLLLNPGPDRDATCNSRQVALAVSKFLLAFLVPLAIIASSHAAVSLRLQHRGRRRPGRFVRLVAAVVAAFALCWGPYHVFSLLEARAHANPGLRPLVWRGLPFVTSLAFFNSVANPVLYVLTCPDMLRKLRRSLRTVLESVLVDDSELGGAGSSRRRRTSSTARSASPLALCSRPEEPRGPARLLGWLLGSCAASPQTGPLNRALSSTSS
# ASSAY_DETAILS: Human CRTH2 Receptor Binding Assay (whole cell, [3H]ramatroban competition)
# Design: two mammalian expression vectors that harbored human CRTH2 and G-alpha16 cDNAs; expressed in transfected cells
# TEST_CONTEXT: CHO-K1 cells expressing human CRTH2 and G-alpha16; 20 nM [3H]ramatroban; 1 hour, room temperature
READOUT_LABEL: IC50 (nM)

compound="CN(C1CCCCc2c(OCC(=O)O)cccc21)S(=O)(=O)c1ccc(-c2cccc(CCO)c2)cn1 (stereo not drawn)" val=2120
compound="O=C(O)COc1cccc2c1CCCCC2NS(=O)(=O)c1ccc(-c2ccc(O)cc2)cc1 (stereo not drawn)" val=103
compound="COc1cc(C(F)(F)F)cc(S(=O)(=O)N(C)C2CCCCc3c(OCC(=O)O)cccc32)c1 (stereo not drawn)" val=106
compound="CC(=O)c1cc(C(F)(F)F)cc(S(=O)(=O)NC2CCCCc3c(OCC(=O)O)cccc32)c1 (stereo not drawn)" val=3.3
compound="Cc1ccc(-c2cccc(S(=O)(=O)N(C)C3CCCCc4c(OCC(=O)O)cccc43)c2)cc1 (stereo not drawn)" val=555
compound="CC(C)c1cc(C(F)(F)F)cc(S(=O)(=O)N(C)C2CCCCc3c(OCC(=O)O)cccc32)c1 (stereo not drawn)" val=199
compound="CN(C1CCCCc2c(OCC(=O)O)cccc21)S(=O)(=O)c1cc(C(F)(F)F)cc(S(C)(=O)=O)c1 (stereo not drawn)" val=11.4
compound="CC(C)c1cccc(-c2ccc(S(=O)(=O)N(C)C3CCCCc4c(OCC(=O)O)cccc43)cc2)c1 (stereo not drawn)" val=106
compound="Cc1cc(-c2ccc(S(=O)(=O)N(C)C3CCCCc4c(OCC(=O)O)cccc43)cc2)cc(C(C)(C)C)c1 (stereo not drawn)" val=189
compound="CSc1cccc(-c2ccc(S(=O)(=O)NC3CCCCc4c(OCC(=O)O)cccc43)cc2)c1 (stereo not drawn)" val=24.3
compound="CS(=O)(=O)c1cc(C(F)(F)F)cc(S(=O)(=O)NC2CCCCc3c(OCC(=O)O)cccc32)c1 (stereo not drawn)" val=11.4
compound="CN(C1CCCCc2c(OCC(=O)O)cccc21)S(=O)(=O)c1ccc(-c2cccc(C(F)(F)F)c2)cn1 (stereo not drawn)" val=457
compound="O=C(O)COc1cccc2c1CCCCC2NS(=O)(=O)c1ccc(-c2cccc(C(F)(F)F)c2)cn1 (stereo not drawn)" val=178
compound="CC(C)c1cccc(-c2cccc(S(=O)(=O)NC3CCCCc4c(OCC(=O)O)cccc43)c2)c1 (stereo not drawn)" val=226
compound="CS(=O)(=O)c1cccc(-c2ccc(S(=O)(=O)NC3CCCCc4c(OCC(=O)O)cccc43)cc2)c1 (stereo not drawn)" val=9.1

###

# SYSTEM_TESTED: human CRTH2 (Homo sapiens, UniProt Q9Y5Y4)
# ASSAY_DETAILS: Calcium Flux Assay Using Fluorometric Imaging Plate Reader (FLIPR)
# Format: cell-based
# Design: expressed in transfected cells; host or cells: CHO-K1 previously transfected with G-alpha 16
# TEST_CONTEXT: CHO-K1 cells with G-alpha 16 and human CRTH2; inhibition of DK-PGD2 ligand-induced Ca2+ flux
Response field class: string, computed from recorded IC50 by ranges lo (below 100 nM), mid (100 nM to below 300 nM), hi (300 nM or more)

molecule="O=C(O)COc1cccc2c1CCCCC2NS(=O)(=O)c1cc(C(F)(F)F)cc(C(F)(F)F)c1 (single isomer, unassigned) [Example 46]" cat=mid
molecule="O=C(O)COc1cccc2c1CCCCC2NS(=O)(=O)c1ccc(-c2ccc(O)cc2)cc1 (centres unmarked) [Example 23]" cat=lo
molecule="O=C(O)COc1cccc2c1CCCCC2NS(=O)(=O)c1ccc(-c2cccc(CCO)c2)cn1 (centres unmarked) [Example 37]" cat=mid
molecule="CC(C)c1cccc(-c2ccc(S(=O)(=O)NC3CCCCc4c(OCC(=O)O)cccc43)nc2)c1 (centres unmarked) [Example 31]" cat=hi
molecule="CN(C1CCCCc2c(OCC(=O)O)cccc21)S(=O)(=O)c1cc(Br)cc(C(F)(F)F)c1 (centres unmarked) [Example 9]" cat=lo
molecule="O=C(O)COc1cccc2c1CCCCC2NS(=O)(=O)c1ccc(-c2ccccc2)cc1 (centres unmarked) [Example 4]" cat=mid
molecule="CN(C1CCCCc2c(OCC(=O)O)cccc21)S(=O)(=O)c1ccc(-c2cccc(C(F)(F)F)c2)cn1 (centres unmarked) [Example 34]" cat=hi
molecule="O=C(O)COc1cccc2c1CCCCC2NS(=O)(=O)c1ccc(-c2cccc(C(F)(F)F)c2)cn1 (centres unmarked) [Example 33]" cat=lo
molecule="CS(=O)(=O)c1cccc(S(=O)(=O)NC2CCCCc3c(OCC(=O)O)cccc32)c1 (centres unmarked) [Example 5]" cat=hi
molecule="CC(C)c1cccc(-c2cccc(S(=O)(=O)NC3CCCCc4c(OCC(=O)O)cccc43)c2)c1 (centres unmarked) [Example 41]" cat=hi
molecule="CS(=O)(=O)c1cccc(-c2ccc(S(=O)(=O)NC3CCCCc4c(OCC(=O)O)cccc43)cc2)c1 (centres unmarked) [Example 29]" cat=lo
molecule="Cc1cc(-c2ccc(S(=O)(=O)N(C)C3CCCCc4c(OCC(=O)O)cccc43)nc2)cc(C(C)(C)C)c1 (centres unmarked) [Example 36]" cat=hi
molecule="O=C(O)COc1cccc2c1CCCCC2NS(=O)(=O)c1cc(Br)cc(C(F)(F)F)c1 (centres unmarked) [Example 8]" cat=lo
molecule="O=C(O)COc1cccc2c1CCCCC2NS(=O)(=O)c1cc(C(F)(F)F)cc(C(F)(F)F)c1 (centres unmarked) [Example 1]" cat=mid
molecule="O=C(O)COc1cccc2c1CCCCC2NS(=O)(=O)c1cc(Cl)cc(Cl)c1 (centres unmarked) [Example 2]" cat=hi
molecule="Cc1cc(-c2ccc(S(=O)(=O)NC3CCCCc4c(OCC(=O)O)cccc43)nc2)cc(C(C)(C)C)c1 (centres unmarked) [Example 35]" cat=mid
molecule="Cc1cncc(-c2ccc(S(=O)(=O)NC3CCCCc4c(OCC(=O)O)cccc43)cc2)c1 (centres unmarked) [Example 25]" cat=mid

###

Overview of recorded IC50 for various molecules
# SYSTEM_TESTED: human CRTH2 (Homo sapiens)
# ASSAY_DETAILS: Human CRTH2 Receptor Binding Assay (whole cell, [3H]ramatroban competition)
# Parameters: two mammalian expression vectors that harbored human CRTH2 and G-alpha16 cDNAs; expressed in transfected cells
# TEST_CONTEXT: CHO-K1 cells expressing human CRTH2 and G-alpha16; 20 nM [3H]ramatroban; 1 hour, room temperature
READOUT_LABEL: IC50

molecule="O=C(O)COc1cccc2c1CCCCC2NS(=O)(=O)c1cc(Cl)cc(Cl)c1 (stereo not shown) [Example 2]" system_tested="human CRTH2 (Homo sapiens)" val="58.4 nM"
molecule="CC(C)c1cccc(-c2ccc(S(=O)(=O)N(C)C3CCCCc4c(OCC(=O)O)cccc43)nc2)c1 (stereo not shown) [Example 32]" system_tested="human CRTH2 (Homo sapiens)" val="123 nM"
molecule="CC(C)c1cccc(-c2ccc(S(=O)(=O)NC3CCCCc4c(OCC(=O)O)cccc43)cc2)c1 (stereo not shown) [Example 19]" system_tested="human CRTH2 (Homo sapiens)" val="13 nM"
molecule="O=C(O)COc1cccc2c1CCCCC2NS(=O)(=O)c1cc(C(F)(F)F)cc(C(F)(F)F)c1 (single isomer, unassigned) [Example 46]" system_tested="human CRTH2 (Homo sapiens)" val="24.5 nM"
molecule="Cc1cc(-c2ccc(S(=O)(=O)N(C)C3CCCCc4c(OCC(=O)O)cccc43)nc2)cc(C(C)(C)C)c1 (stereo not shown) [Example 36]" system_tested="human CRTH2 (Homo sapiens)" val="164 nM"
molecule="CC(C)c1cccc(-c2ccc(S(=O)(=O)NC3CCCCc4c(OCC(=O)O)cccc43)nc2)c1 (stereo not shown) [Example 31]" system_tested="human CRTH2 (Homo sapiens)" val="26.7 nM"
molecule="Cc1ccc(-c2cccc(S(=O)(=O)NC3CCCCc4c(OCC(=O)O)cccc43)c2)cc1 (stereo not shown) [Example 39]" system_tested="human CRTH2 (Homo sapiens)" val="514 nM"
molecule="CC(C)c1cccc(-c2cccc(S(=O)(=O)N(C)C3CCCCc4c(OCC(=O)O)cccc43)c2)c1 (stereo not shown) [Example 42]" system_tested="human CRTH2 (Homo sapiens)" val="845 nM"
molecule="CN(C1CCCCc2c(OCC(=O)O)cccc21)S(=O)(=O)c1ccc(-c2ccc(O)cc2)cc1 (stereo not shown) [Example 24]" system_tested="human CRTH2 (Homo sapiens)" val="987 nM"
molecule="O=C(O)COc1cccc2c1CCCCC2NS(=O)(=O)c1cc(C(F)(F)F)cc(C(F)(F)F)c1 (stereo not shown) [Example 1]" system_tested="human CRTH2 (Homo sapiens)" val="8.9 nM"
molecule="CS(=O)(=O)c1cccc(S(=O)(=O)NC2CCCCc3c(OCC(=O)O)cccc32)c1 (stereo not shown) [Example 5]" system_tested="human CRTH2 (Homo sapiens)" val="952 nM"
molecule="Cc1cncc(-c2ccc(S(=O)(=O)NC3CCCCc4c(OCC(=O)O)cccc43)cc2)c1 (stereo not shown) [Example 25]" system_tested="human CRTH2 (Homo sapiens)" val="33.7 nM"
molecule="O=C(O)COc1cccc2c1CCCCC2NS(=O)(=O)c1cccc(-c2ccccc2)c1 (stereo not shown) [Example 3]" system_tested="human CRTH2 (Homo sapiens)" val="2610 nM"
molecule="CN(C1CCCCc2c(OCC(=O)O)cccc21)S(=O)(=O)c1cc(F)cc(C(F)(F)F)c1 (stereo not shown) [Example 7]" system_tested="human CRTH2 (Homo sapiens)" val="64.6 nM"
molecule="CSc1cccc(-c2ccc(S(=O)(=O)N(C)C3CCCCc4c(OCC(=O)O)cccc43)cc2)c1 (stereo not shown) [Example 28]" system_tested="human CRTH2 (Homo sapiens)" val="603 nM"
molecule="CC(=O)c1cc(C(F)(F)F)cc(S(=O)(=O)N(C)C2CCCCc3c(OCC(=O)O)cccc32)c1 (stereo not shown) [Example 16]" system_tested="human CRTH2 (Homo sapiens)" val="5.9 nM"

# credit: patent US20120309796A1
